- assayName: Antibacterial activity of TMP-susceptible Dihydrofolate reductase against […] ATCC 49619
Can you tell me IC50 for the items I'm about to list?
Use nM as the unit, but write only the number.

Query: Input CC1c2ccc3c4ccccc4n(C)c3c2CCN1Cc1cnc(N)nc1N (stereo not given) , output reported IC50.
Response: 4

Query: Input COc1ccc2c(c1)CN(Cc1cnc(N)nc1N)CC2c1cccc([N+](=O)[O-])c1 (stereo not given) , output reported IC50.
Response: 6

Query: Input CSc1c2n(c3cc(Cl)ccc13)CCN(Cc1cnc(N)nc1N)C2 , output reported IC50.
Response: 2

Query: Input CC1c2cc(Cc3ccccc3)c(-c3ccccc3)n2CCN1Cc1cnc(N)nc1N (stereo not given) , output reported IC50.
Response: 450

Query: Input Nc1ncc(CN2CCc3c([nH]c4ccccc34)C2)c(N)n1 , output reported IC50.
Response: 4

Cited source: BindingDB's records for doi:10.1021/jm020495y
